Collected pIC50 values appear next to each entry.
measurement-target: human TYRO3 (455-end) (Homo sapiens, UniProt Q06418)
Construct: TYRO3 (455-end); purchased SignalChem, Canada
Sequence (Q06418 455-890 limits assumed): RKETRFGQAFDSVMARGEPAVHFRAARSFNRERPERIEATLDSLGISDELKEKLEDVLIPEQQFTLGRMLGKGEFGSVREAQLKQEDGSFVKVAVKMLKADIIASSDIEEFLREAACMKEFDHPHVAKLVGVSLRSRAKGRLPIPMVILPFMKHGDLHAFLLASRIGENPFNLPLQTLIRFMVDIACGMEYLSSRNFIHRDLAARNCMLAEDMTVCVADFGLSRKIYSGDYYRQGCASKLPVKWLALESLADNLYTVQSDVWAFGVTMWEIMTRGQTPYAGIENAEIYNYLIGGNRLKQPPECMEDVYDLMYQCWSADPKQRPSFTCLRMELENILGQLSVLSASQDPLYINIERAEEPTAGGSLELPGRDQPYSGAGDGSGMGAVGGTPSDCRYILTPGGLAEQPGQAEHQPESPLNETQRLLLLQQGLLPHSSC
experimental-details: HTRF kinase activity biochemical assay, TYRO3
experimental-setup: 10 μM ATP, 30 minutes pre-incubation; read-out: HTRF TYRO IC50
pIC50: −log10 of the molar value.

Some compounds with known pIC50 results, for comparison:
INSERT INTO measurements (compound, measurement_target, observed_property, measurement) VALUES
  ('Cn1cc(-c2cnc(N)c(C(=O)N[C@H]3CCC[C@@H]3OCc3ccc(-c4ccc5c(ccn5CCO)c4)cc3)c2)cn1', 'human TYRO3 (455-end) (Homo sapiens, UniProt Q06418)', 'pIC50', '< 6.00'),
  ('Cn1cc(-c2cnc(N)c(C(=O)N[C@H]3CCC[C@@H]3OCc3ccc(-c4ccc5c(c4)CCC[C@@H]5N4CCNCC4)cc3)c2)cn1', 'human TYRO3 (455-end) (Homo sapiens, UniProt Q06418)', 'pIC50', '7.00 to 8.00'),
  ('CN1CCC(n2ccc3cc(-c4ccc(CO[C@H]5CCC[C@@H]5NC(=O)c5cc(-c6cnn(C)c6)cnc5N)cc4)ccc32)CC1', 'human TYRO3 (455-end) (Homo sapiens, UniProt Q06418)', 'pIC50', '6.00 to 7.00'),
  ('Cn1cc(-c2cnc(N)c(C(=O)N[C@H]3CCC[C@@H]3OCc3ccc(-c4ccc5c(c4)C(C)(C)CN5C4CCN(CCO)CC4)cc3)c2)cn1', 'human TYRO3 (455-end) (Homo sapiens, UniProt Q06418)', 'pIC50', '7.00 to 8.00'),
  ('Cn1cc(-c2cnc(N)c(C(=O)N[C@H]3CCC[C@@H]3OCc3ccc(-c4ccc5c(c4)C(C)(C)CN5C4CCN(CC(O)CO)CC4)cc3)c2)cn1 (stereo partly drawn)', 'human TYRO3 (455-end) (Homo sapiens, UniProt Q06418)', 'pIC50', '> 8.00'),
  ('CC1(C)CN(C2CCN(CCO)CC2)c2ccc(-c3ccc(CO[C@H]4COC[C@@H]4NC(=O)c4nc(-c5ccc(F)nc5)cnc4N)cc3)cc21', 'human TYRO3 (455-end) (Homo sapiens, UniProt Q06418)', 'pIC50', '6.00 to 7.00');

pIC50 recorded for this compound, COc1ccnc(N)c1C(=O)N[C@H]1CCC[C@@H]1OCc1ccc(-c2ccc3c(c2)CC[C@@H]3N2CCN(C)CC2)cc1 , is 6.00 to 7.00

pIC50 recorded for this compound, Nc1ncc(-c2cccnc2F)cc1C(=O)N[C@H]1CCC[C@@H]1OCc1ccc(-c2ccc3c(c2)OCCC3N2CCN(CCO)CC2)cc1 (stereo partly drawn) , is 6.00 to 7.00

pIC50 recorded for this compound, CCC1(C)CN(C2CCN(CCO)CC2)c2ccc(-c3ccc(CO[C@H]4CCC[C@@H]4NC(=O)c4cc(-c5cnn(C)c5)cnc4N)cc3)cc21 (mixture of isomers) , is > 8.00

====

measurement-target: human AXL (473-end) (Homo sapiens)
Construct: human AXL (473-end); purchased SignalChem, Canada
Sequence (P30530 473-894 limits assumed): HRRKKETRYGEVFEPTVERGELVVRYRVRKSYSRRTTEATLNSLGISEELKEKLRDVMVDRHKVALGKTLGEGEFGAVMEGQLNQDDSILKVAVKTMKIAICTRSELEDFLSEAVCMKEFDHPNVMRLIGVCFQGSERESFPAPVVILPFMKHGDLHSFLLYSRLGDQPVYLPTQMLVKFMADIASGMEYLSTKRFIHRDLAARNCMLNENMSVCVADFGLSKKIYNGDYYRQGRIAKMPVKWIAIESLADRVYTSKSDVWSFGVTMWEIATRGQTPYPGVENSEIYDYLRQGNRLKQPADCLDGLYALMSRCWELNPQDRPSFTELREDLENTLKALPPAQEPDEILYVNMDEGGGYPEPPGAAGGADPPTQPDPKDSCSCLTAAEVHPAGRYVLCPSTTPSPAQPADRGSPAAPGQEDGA
experimental-details: HTRF kinase activity biochemical assay, AXL
experimental-setup: 10 μM ATP, 30 minutes pre-incubation
Description: For the SAR (structure-activity relationship) and compound screening, HTRF (Homogeneous Time Resolved Fluorescence) kinase activity assay was employed for all MER, AXL and TYRO3 kinases using Cisbio HTRF® KinEASE™-TK kit (Cisbio, USA). The kit included biotin-labeled TK substrate, streptavidin-XL665, Eu3+-cryptate-labeled TK antibody and HTRF® Detection buffer. […] After 1 hour incubation at room temperature, the fluorescence intensity was measured with Envision[…] plate reader (PerkinElmer, USA). […]
observed-property: IC50

Some compounds with known IC50 results, for comparison:
INSERT INTO assay_data (compound, observed_property, measurement) VALUES
  ('Cc1cn(C)c2ccc(-c3ccc(CO[C@H]4CCC[C@@H]4NC(=O)c4cc(-c5cnn(C)c5)cnc4N)cc3)cc12', 'IC50', '0.01 to 0.1 µM'),
  ('CN1CCN([C@H]2CCc3cc(-c4ccc(CO[C@H]5CCC[C@@H]5NC(=O)c5cc(C(F)(F)F)cnc5N)cc4)ccc32)CC1', 'IC50', '< 0.01 µM'),
  ('COc1nc(-c2cnc(N)c(C(=O)N[C@H]3CCC[C@@H]3OCc3ccc(-c4ccc5c(c4)CC[C@@H]5N4CCN(CCO)CC4)cc3)c2)cs1', 'IC50', '< 0.01 µM'),
  ('CC1(C)OCC(CN2CCN(C3CCc4cc(-c5ccc(CO[C@H]6CCC[C@@H]6NC(=O)c6cc(-c7ccc(F)nc7)cnc6N)cc5)ccc43)CC2)O1 (stereo partly drawn)', 'IC50', '0.01 to 0.1 µM'),
  ('CC1(C)CN(C2CCN(CCO)CC2)c2ccc(-c3ccc(CO[C@H]4COC[C@@H]4NC(=O)c4cc(-c5ccc(F)nc5)cnc4N)cc3)cc21', 'IC50', '0.01 to 0.1 µM');

IC50 recorded for this compound, Nc1ncc(-c2cccnc2F)cc1C(=O)N[C@H]1CCC[C@@H]1OCc1ccc(-c2ccc3c(c2)CC[C@@H]3N2CCN(C[C@H](O)CO)CC2)cc1 , is < 0.01 µM

IC50 recorded for this compound, CN1CCN([C@H]2CCc3cc(-c4ccc(CO[C@H]5CCC[C@@H]5NC(=O)c5cc(-c6cccnc6F)cnc5N)cc4)ccc32)CC1 , is < 0.01 µM

IC50 recorded for this compound, Cc1[nH]c2ccc(-c3ccc(CO[C@H]4CCC[C@@H]4NC(=O)c4cc(-c5cnn(C)c5)cnc4N)cc3)cc2c1C , is 0.01 to 0.1 µM

IC50 recorded for this compound, Cn1cc(-c2cnc(N)c(C(=O)N[C@H]3CCC[C@@H]3OCc3ccc(-c4ccc5c(ccn5C5CCN(CCO)CC5)c4)cc3)c2)cn1 , is < 0.01 µM

====

measurement-target: human AXL (473-end) (Homo sapiens)
Construct: human AXL (473-end); purchased SignalChem, Canada
experimental-details: HTRF kinase activity biochemical assay, AXL
experimental-setup: 10 μM ATP, 30 minutes pre-incubation
observed-property: IC50

Some compounds with known IC50 results, for comparison:
INSERT INTO results (compound, measurement) VALUES
  ('CN1CCN([C@H]2CCCc3cc(-c4ccc(CO[C@H]5CCC[C@@H]5NC(=O)c5cc(-c6cnn(C)c6)cnc5N)cc4)ccc32)CC1', '< 10 nM'),
  ('Nc1ncc(-c2ccc(F)nc2)cc1C(=O)N[C@H]1CCC[C@@H]1OCc1ccc(-c2ccc3c(c2)CC(F)(F)C3N2CCN(CCO)CC2)cc1 (stereo partly drawn)', '< 10 nM'),
  ('Nc1ncc(-c2ccc(F)nc2)cc1C(=O)N[C@H]1CCC[C@@H]1OCc1ccc(-c2ccc3c(c2)CC[C@@H]3N2CCN3C[C@H](O)C[C@H]3C2)cc1', '< 10 nM');

Record Nc1ncc(-c2cncc(F)c2)cc1C(=O)N[C@H]1CCC[C@@H]1OCc1ccc(-c2ccc3c(c2)CCCC3N2CCN(CCO)CC2)cc1 (stereo partly drawn) ; system human AXL (473-end) (Homo sapiens); IC50 = < 10 nM

Record Cn1cc(-c2cnc(N)c(C(=O)N[C@H]3CCC[C@@H]3OCc3ccc(-c4ccc5c(c4)C(C)(C)C[C@H]5N4CCN(CCO)CC4)cc3)c2)cn1 ; system human AXL (473-end) (Homo sapiens); IC50 = 10 to 100 nM

Record Nc1ncc(-c2ccc(F)nc2)cc1C(=O)N[C@H]1CCC[C@@H]1OCc1ccc(-c2ccc3c(c2)C[C@H](F)[C@@H]3N2CCN(CCO)CC2)cc1 (relative stereo) ; system human AXL (473-end) (Homo sapiens); IC50 = < 10 nM

Record Cn1ccc(-c2cnc(N)c(C(=O)N[C@H]3CCC[C@@H]3OCc3ccc(-c4ccc5c(c4)C(C)(C)CN5C4CCN(CCO)CC4)cc3)c2)cc1=O ; system human AXL (473-end) (Homo sapiens); IC50 = < 10 nM

Record Cc1cc2cc(-c3ccc(CO[C@H]4CCC[C@@H]4NC(=O)c4cc(-c5cnn(C)c5)cnc4N)cc3)ccc2[nH]1 ; system human AXL (473-end) (Homo sapiens); IC50 = 10 to 100 nM

Record CN(CCC(O)CO)C1CCc2cc(-c3ccc(CO[C@H]4CCC[C@@H]4NC(=O)c4cc(-c5cnn(C)c5)cnc4N)cc3)ccc21 (stereo partly drawn) ; system human AXL (473-end) (Homo sapiens); IC50 = 10 to 100 nM

Record Cn1cc(-c2cnc(N)c(C(=O)N[C@H]3CCC[C@@H]3OCc3ccc(-c4ccc5[nH]c(C(F)(F)F)cc5c4)cc3)c2)cn1 ; system human AXL (473-end) (Homo sapiens); IC50 = 100 to 1000 nM

Record Nc1ncc(C(F)(F)F)cc1C(=O)N[C@H]1CCC[C@@H]1OCc1ccc(-c2ccc3c(c2)CCCC3N2CCN(CCO)CC2)cc1 (stereo partly drawn) ; system human AXL (473-end) (Homo sapiens); IC50 = < 10 nM

Record CN(C)CC(=O)N1CCc2cc(-c3ccc(CO[C@H]4CCC[C@@H]4NC(=O)c4cc(-c5cnn(C)c5)cnc4N)cc3)ccc21 ; system human AXL (473-end) (Homo sapiens); IC50 = 100 to 1000 nM
